Ref: ChEMBL document CHEMBL1201862

test system: SN12C; assay: NCI tumour cell line growth inhibition, 48 h
Calls of active or inactive are those of the source. Cut-off read from the data, not from the text of the source: active = GI50 up to about 1.1 µM and inactive = higher. Where a SMILES comes first, the peptide text is derived from it. The star is where a group is joined. Cbz = O=C(OCc1ccccc1)*; Boc = CC(C)(C)OC(=O)*; Bn = c1ccc(C*)cc1
Assignment: determine reported GI50 for the given compounds.

Value lookup for GI50; key = NS(=O)(=O)c1ccc(/C=C/c2ccc(F)cc2)cc1
25.8 µM (inactive)

Value lookup for GI50; key = COC(=O)C1=C(C(=O)OC)C2(c3ccccc3)OC1(c1ccccc1)c1cc3ccccc3cc12
1.9 µM (inactive)

Value lookup for GI50; key = COc1ccc(N2C(N)=C(C#N)C(C#N)(C#N)C2c2cccc([N+](=O)[O-])c2)cc1 (stereo not drawn)
16.1 µM (inactive)

Value lookup for GI50; key = C=C(N=[N+]=[N-])c1cn(C2CC(O)C(CO)O2)c(=O)[nH]c1=O (stereo not drawn)
> 100 µM (inactive)

Value lookup for GI50; key = COC(=O)/C=C/c1ccc(OP(=O)(O)O)c(OC)c1
> 100 µM (inactive)

Value lookup for GI50; key = CN1CCCCCC(=N\O)/C(=N/O)CCCCC1
> 100 µM (inactive)

Value lookup for GI50; key = CCOC(=O)C1CCCCN1CCc1c[nH]c2ccccc12 (stereo not drawn)
> 100 µM (inactive)

Value lookup for GI50; key = c1ccc2c(c1)[nH]c1c[nH]c3c4cccnc4nc-3c12
18.6 µM (inactive)

Value lookup for GI50; key = CC1=[N+]([O-])C(C)(C)N(N=O)C1(C)C
> 10 µM (inactive)

Value lookup for GI50; key = CC(C)N(CCn1c2c3ccccc3ccc2c2oc(=O)c3ccccc3c21)C(C)C
> 100 µM (inactive)

Value lookup for GI50; key = CC(=O)Oc1cccc2c1C(=O)c1c(OC(C)=O)cc(C)cc1C2=O
51.2 µM (inactive)

Value lookup for GI50; key = O=[N+]([O-])c1ccc(-c2nc3cc(Cl)ccc3[nH]2)cc1
43.6 µM (inactive)

Value lookup for GI50; key = CC(C)=CC(=O)Cc1nc2ccccc2[nH]c1=O
> 100 µM (inactive)

Value lookup for GI50; key = CC(C)=C[C@@H]1O[C@H](O)[C@@H]([C@H]2CC[C@@]3(C)[C@@H]4CC[C@H]5C(C)(C)C(=O)CC[C@@]56C[C@@]46CC[C@]23C)[C@@H]1O
19.3 µM (inactive)

Value lookup for GI50; key = Cc1c2n(c(=O)[nH]c1=O)C1OC(CO)C(N=[N+]=[N-])C1O2 (stereo not drawn)
> 100 µM (inactive)

Value lookup for GI50; key = COC(=O)C(Cc1cn(C(C)n2cc(CC(NC(C)=O)C(=O)OC)c3ccccc32)c2ccccc12)NC(C)=O (stereo not drawn)
> 100 µM (inactive)

Value lookup for GI50; key = O=c1c(C(c2ccc([N+](=O)[O-])cc2)c2c(O)oc3ccccc3c2=O)c(O)oc2ccccc12
> 100 µM (inactive)

Value lookup for GI50; key = Cc1ccccc1/N=N/c1c(O)c(S(=O)(=O)O)cc2cc(S(=O)(=O)O)ccc12
> 100 µM (inactive)

Value lookup for GI50; key = CC12C(=CC(=O)CC1SCCS(=O)(=O)O)C(C#N)=C(N)N2c1ccc(Cl)c(Cl)c1 (stereo not drawn)
> 100 µM (inactive)

Value lookup for GI50; key = O=C1C(c2c(O)[nH]c3ccc(Br)cc23)=Nc2ccccc21
28 µM (inactive)

Value lookup for GI50; key = CC[C@@]1(O)C(=O)OCc2c1cc1n(c2=O)Cc2c-1nc1ccccc1c2/C=N\NC(=O)C(N)Cc1c[nH]c2ccccc12 (stereo partly drawn)
0.108 µM (active)

Value lookup for GI50; key = COc1cc([C@@H]2c3cc4c(cc3[C@@H](c3c(O)cc(O)c5c3O[C@H](c3ccc(O)c(O)c3)[C@H](OC(=O)c3cc(O)c(O)c(O)c3)C5)[C@H]3COC(=O)[C@H]23)OCO4)cc(OC)c1O
22.3 µM (inactive)

Value lookup for GI50; key = CC(C)(C)C(=O)CP(=O)(O)O
> 100 µM (inactive)

Value lookup for GI50; key = Nc1ncnc2c1ncn2C1CCC(CO)O1 (stereo not drawn)
> 100 µM (inactive)

Value lookup for GI50; key = CSc1ccc2c(cc1=O)[C@@H](NC(C)=O)CCc1cc(O)c(O)c(O)c1-2
20.2 µM (inactive)

Value lookup for GI50; key = COc1ccc(NCc2cnc3nc(N)nc(N)c3c2C)cc1
3.85 µM (inactive)

Value lookup for GI50; key = COC(=O)NNC(=O)OC.COC(=O)Nc1ccccc1NC(=O)OC.COC(=O)Oc1nn(C(=O)OC)c(=O)c2ccccc12
> 100 µM (inactive)

Value lookup for GI50; key = CC(C)(C)OC(=O)NC(Cc1ccc(OCc2ccccc2)cc1)C(=O)NC(CCCCNC(=O)OCc1ccccc1)C(=O)O (stereo not drawn) (Boc-Tyr(Bn)-Lys(Cbz)-OH; configuration not given here)
30.5 µM (inactive)

Value lookup for GI50; key = O=C1/C(=C/c2ccccc2)CN(C(=O)CCN2CCCC2)C/C1=C\c1ccccc1
1.51 µM (inactive)

Value lookup for GI50; key = Cc1ccc(-c2c3nc(c(-c4ccc(C)cc4)c4ccc([nH]4)c(-c4ccc(OCC5COC(C)(C)O5)cc4)c4nc(c(-c5ccc(C)cc5)c5ccc2[nH]5)C=C4)C=C3)cc1 (stereo not drawn)
> 31.6 µM (inactive)

Value lookup for GI50; key = NC(=O)c1nc[nH]c1/N=N/SCC(N)C(=O)O (stereo not drawn)
6.73 µM (inactive)

Value lookup for GI50; key = CCOC(=O)C(CS)NC(=O)CCCCCCCC(=O)O (stereo not drawn)
> 100 µM (inactive)

Value lookup for GI50; key = CC(=O)Oc1cc2c(n(C)c1=O)-c1ccccc1C2
> 100 µM (inactive)

Value lookup for GI50; key = CCc1ccccc1NC(=O)CC1NC(=O)CS1 (stereo not drawn)
> 100 µM (inactive)

Value lookup for GI50; key = Cc1c(NC(=O)c2cc([N+](=O)[O-])cc([N+](=O)[O-])c2)c(=O)n(-c2ccccc2)n1C
> 100 µM (inactive)

Value lookup for GI50; key = CN(C)CCCNC(=O)N/N=C/c1ccc(O)cc1
> 100 µM (inactive)

Value lookup for GI50; key = C[C@@H]1Nc2cc(NC(=O)OCCF)nc(N)c2N=C1c1ccccc1
< 0.0001 µM (active)

Value lookup for GI50; key = C=Cc1ccccc1C1C(C(=O)OCC)=C(C)N=C2OC(C(=O)OC)C(=O)N21 (stereo not drawn)
> 100 µM (inactive)

---

tested on: SF-295; assay: NCI tumour cell line growth inhibition, 48 h
Active and inactive are the calls of the source. Rule as the data show it: active = GI50 up to about 1.1 µM and inactive = higher.
Your response should consist of one outcome taken from active, inactive

Which result was noted for this molecule in the test: COc1ccc2[nH]c3c(C)c4cnccc4c(C)c3c2c1
inactive

Which result was noted for this molecule in the test: COc1ccc2c(c1OC)C(=O)N1C2=Cc2c(cc3c(c2OC)OCO3)CC1N(C)C (stereo not given)
inactive

Which result was noted for this molecule in the test: C=C[C@]1(C)CC[C@]2(C)C(CC[C@@]3(C)C2C[C@H](O)[C@H](O)[C@@]3(C)O)C1 (stereo not given in full)
inactive

Which result was noted for this molecule in the test: O=C(n1c2ccccc2c2nnc(S)nc21)C(F)(F)F
inactive

Which result was noted for this molecule in the test: CC1(C(O)c2ccccc2)CN(C(C)(C)C)C(=O)/C1=C\Sc1ccccc1 (stereo not given)
inactive

Which result was noted for this molecule in the test: Nc1ncnc2c1ncn2[C@@H]1O[C@H](COC(c2ccccc2)(c2ccccc2)c2ccccc2)[C@@H](OC(=S)Oc2ccccc2)[C@@H]1F
inactive

Which result was noted for this molecule in the test: CC1=C(C(=O)Nc2ccccc2)C(c2ccc(C(C)C)cc2)C(C(=O)Nc2ccccc2)=C(C)N1
inactive

Which result was noted for this molecule in the test: CCCCC(/C=C\COC1CCCCO1)=C/C(=O)OCC (stereo not given)
inactive

Which result was noted for this molecule in the test: CNc1cc(Cl)ccc1C(=O)N1CCC[C@H]1CO
inactive

Which result was noted for this molecule in the test: Cc1cc(Cl)ccc1NC(=O)C1C(=O)N(c2ccc(Cl)cc2C)C(=O)/C1=N\N (stereo not given)
inactive

Which result was noted for this molecule in the test: COC(=O)NNC(=O)OC.COC(=O)Nc1ccccc1NC(=O)OC.COC(=O)Oc1nn(C(=O)OC)c(=O)c2ccccc12
inactive

Which result was noted for this molecule in the test: CCc1nc(N)nc(N)c1-c1ccc(Cl)c([N+]#N)c1
inactive

Which result was noted for this molecule in the test: COc1cc(-c2oc3c(OC)c(O)c(OC)c(O)c3c(=O)c2OC)cc(O)c1OC
inactive

Which result was noted for this molecule in the test: CC(C)=CCC1=C(OCC(=O)O)C(=O)c2ccccc2C1=O
inactive

Which result was noted for this molecule in the test: CC(=O)O[C@H]1C(=O)[C@@]2(C)C([C@H](OC(=O)c3ccccc3)[C@]3(O)C[C@H](OC(=O)[C@H](O)[C@H](NC(=O)c4ccccc4)c4ccc(Cl)cc4)C(C)=C1C3(C)C)C1(OC(C)=O)CO[C@@H]1C[C@@H]2O (stereo not given in full)
active

Which result was noted for this molecule in the test: c1ccc2c(c1)[nH]c1c[nH]c3c4cccnc4nc-3c12
inactive

Which result was noted for this molecule in the test: COc1ccc(CCNC(=O)CCc2ccccc2CO)cc1OC
inactive

Which result was noted for this molecule in the test: CN1CC=C(OP(=O)(NCc2ccccc2)N(CCCl)CCCl)CC1 (stereo not given)
inactive

Which result was noted for this molecule in the test: CCCOP1(=O)C=C(C)C(Cl)=C(C)C1 (stereo not given)
inactive

Which result was noted for this molecule in the test: Cc1c[nH]c(C(=O)O)c1-c1ccc2c(-c3ccccc3)nc3ccccc3n12
inactive
